Please respond with reported IC50 for every item in the list.
# Assay Target: AA (Homo sapiens, UniProt O14965)
# Sequence (O14965 whole entry): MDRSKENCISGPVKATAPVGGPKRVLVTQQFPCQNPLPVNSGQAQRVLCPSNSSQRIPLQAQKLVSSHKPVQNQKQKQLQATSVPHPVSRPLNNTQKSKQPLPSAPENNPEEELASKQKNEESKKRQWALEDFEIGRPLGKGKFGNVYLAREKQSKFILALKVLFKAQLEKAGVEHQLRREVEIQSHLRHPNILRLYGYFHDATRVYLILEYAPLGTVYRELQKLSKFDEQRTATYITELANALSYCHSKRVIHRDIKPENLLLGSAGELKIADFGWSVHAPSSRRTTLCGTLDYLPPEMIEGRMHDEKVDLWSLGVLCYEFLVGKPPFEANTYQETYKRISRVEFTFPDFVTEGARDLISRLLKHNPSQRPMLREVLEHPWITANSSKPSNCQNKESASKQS
# Experimental Details: AA IC50 (Table 1; no method given)
# Format: biochemical
# Test Settings: Table 2, AurA IC50; class symbols; read-out: AurA IC50

Consider the following items and state reported IC50 for each.
1. Cc1ccc(N2CCC(=O)N(C)c3cnc(Nc4ccc(NC(=O)C5CC5)c(C)c4)nc32)cc1 [compound 291]
2. CN1C(=O)CCN(C2CCCC2)c2nc(Nc3ccc(N4CCOCC4)cc3)ncc21 [compound 51]
3. CN1CCC(NC(=O)c2ccc(Nc3ncc4c(n3)N(C3CCCC3)CC3(CC3)C(=O)N4C)cc2)CC1 [compound 349]
4. Cc1cc(Nc2ncc3c(n2)N(C2CCCC2)CCC(=O)N3C)ccc1Cl [compound 72]
5. Cc1cc(Nc2ncc3c(n2)N(C2CCCC2)CCC(=O)N3C)ccc1N(S(C)(=O)=O)S(C)(=O)=O [compound 288]

Result:
< 100 nM
< 1000 nM
< 10000 nM
< 1000 nM
< 100 nM

Consider the following items and state reported IC50 for each.
1. CC(=O)Nc1ccc(Nc2ncc3c(n2)N(C2CCCC2)CCC(=O)N3C)cc1Cl [compound 324]
2. CN1C(=O)CCN(C2CCCC2)c2nc(Nc3ccc(S(=O)(=O)N(C)C)cc3)ncc21 [compound 300]
3. Cc1c(Nc2ncc3c(n2)N(C2CCCC2)CCC(=O)N3C)cccc1C(=O)NC1CCN(C)CC1 [compound 140]
4. CCN1C(=O)CCN(c2ccc(OC)cc2)c2nc(Nc3ccc4c(c3)CS(=O)(=O)C4)ncc21 [compound 333]
5. CN1CCC(NS(=O)(=O)c2cccc(Nc3ncc4c(n3)N(C3CCCC3)CCC(=O)N4C)c2)CC1 [compound 103]
6. CCC(CC)N1CCC(=O)N(C)c2cnc(Nc3ccc4c(c3)CS(=O)(=O)C4)nc21 [compound 79]
7. CCN1C(=O)CCN(c2ccc(OC)cc2)c2nc(Nc3ccc(NC(=O)C4CC4)c(C)c3)ncc21 [compound 330]
8. CC(=O)Nc1ccc(Nc2ncc3c(n2)N(C2CCCC2)CCC(=O)N3C)cc1C(F)(F)F [compound 286]

Result:
1: < 1000 nM; 2: < 100 nM; 3: < 10000 nM; 4: < 100 nM; 5: < 1000 nM; 6: < 100 nM; 7: < 10000 nM; 8: < 1000 nM

Consider the following items and state reported IC50 for each.
1. CC(=O)N(C)S(=O)(=O)c1ccc(Nc2ncc3c(n2)N(C2CCCC2)CCC(=O)N3C)cc1 [compound 97]
2. CN1CCC(NC(=O)c2ccc(Nc3ncc4c(n3)N(C3CCCC3)CCC(=O)N4C)c(F)c2)CC1 [compound 215]
3. CN1C(=O)CCN(C2CCCC2)c2nc(Nc3ccccc3)ncc21 [compound 70]
4. Cc1ccccc1N1CCC(=O)N(C)c2cnc(Nc3ccc4c(c3)CS(=O)(=O)C4)nc21 [compound 134]
5. CN1C(=O)CCN(C(C)(C)C)c2nc(Nc3ccc4c(c3)CS(=O)(=O)C4)ncc21 [compound 121]
6. Cc1cc(Nc2ncc3c(n2)N(c2c(F)cccc2F)CCC(=O)N3C)ccc1NC(=O)C1CC1 [compound 329]
7. CN1C(=O)CCN(C2CCCC2)c2nc(Nc3ccc4c(c3)NC(=O)CO4)ncc21 [compound 295]

Result:
1. < 100 nM
2. < 10000 nM
3. < 1000 nM
4. < 1000 nM
5. < 1000 nM
6. < 1000 nM
7. < 100 nM
